Attribution: the supplement of paper PMC10065799

System: AncSZ
Assay Explanation: phosphorylation enrichment, bacterial display (enrichment ratio); higher = better substrate or ligand; peptides without Tyr show the background
Entries annotated with measured phosphorylation enrichment

For the sequence shown here, TIMTDYNPNFC [ALK_Y1092_YF] , give the reported phosphorylation enrichment. 0.858

Now try VKYLGYPPPEI [KDR_Y357_A352V] . 0.7

Now try TRSYKYLLLSM [NF1_Y491] . 0.833

Now try NMSRIYSTTKV [ACE_Y151_A154T] . 0.441

Now try RISPEYKQNEI [GJB1_Y243_L239I] . 1.15

Now try AMCVCYDGVEV [ADAMTSL2_Y594_R593C] . 1.42

Now try IHTEFYDGLFP [BCR_Y561_K558T] . 1.47

###

Entries annotated with measured SH2 binding enrichment
Target Entity: SHP2-C SH2
Assay Explanation: SH2 binding enrichment of the phosphorylated peptide, bacterial display (enrichment ratio); higher = better substrate or ligand; peptides without Tyr show the background
Reply with the value as a number alone.

Observe how each entry below is paired with its result.
• GKANRYFSPNF [PTEN_Y336_D331G] = 1.06
• LDTIQYSKHPP [SQSTM1_Y433] = 0.771
• SKNSKCNAEST [PSEN1_Y315_Y315C] = 0.754
• GEFHVYRHLRR [PRKRIP1_Y82] = 0.358

For the sequence shown here, PFSSPYENSLI [EPOR_Y489_N487S_YF] , give the reported SH2 binding enrichment. 1.03

Now try GVLKEYGVKVL [CPS1_Y529] . 0.688

Now try IEKLTYIDKWF [CPS1_Y872] . 0.465

###

Target Entity: FGFR1 (UniProt P11362)
Sequence (P11362 whole entry, looked up): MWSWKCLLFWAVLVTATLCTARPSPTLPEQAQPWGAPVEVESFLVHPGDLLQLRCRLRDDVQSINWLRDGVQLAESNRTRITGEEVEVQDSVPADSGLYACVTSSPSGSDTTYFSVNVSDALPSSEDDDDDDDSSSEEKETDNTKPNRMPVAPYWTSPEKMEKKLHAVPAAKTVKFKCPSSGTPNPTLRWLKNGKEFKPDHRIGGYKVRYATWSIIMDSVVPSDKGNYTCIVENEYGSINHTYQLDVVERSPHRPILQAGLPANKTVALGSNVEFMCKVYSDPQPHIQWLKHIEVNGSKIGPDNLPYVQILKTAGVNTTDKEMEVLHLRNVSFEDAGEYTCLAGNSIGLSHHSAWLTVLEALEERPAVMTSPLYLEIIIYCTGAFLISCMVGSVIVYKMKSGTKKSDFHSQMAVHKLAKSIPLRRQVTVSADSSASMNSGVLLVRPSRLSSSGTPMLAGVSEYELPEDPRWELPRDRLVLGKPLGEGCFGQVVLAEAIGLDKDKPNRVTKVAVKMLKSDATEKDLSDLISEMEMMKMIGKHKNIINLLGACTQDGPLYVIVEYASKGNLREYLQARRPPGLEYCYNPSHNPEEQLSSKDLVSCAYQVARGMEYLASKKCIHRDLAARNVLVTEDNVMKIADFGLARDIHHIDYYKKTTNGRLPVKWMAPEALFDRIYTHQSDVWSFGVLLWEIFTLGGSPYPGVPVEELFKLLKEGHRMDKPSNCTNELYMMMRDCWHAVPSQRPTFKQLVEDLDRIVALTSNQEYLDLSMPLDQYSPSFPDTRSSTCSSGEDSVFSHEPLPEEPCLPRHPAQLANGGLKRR
Assay Explanation: phosphorylation enrichment, bacterial display (enrichment ratio); higher = better substrate or ligand; peptides without Tyr show the background
Measured Endpoint: phosphorylation enrichment
Reply with the value as a number alone.

For the sequence shown here, KLIETYSSKNY [PLP1_Y50_F51S] , give the reported phosphorylation enrichment. 0.584

Now try ESAAIYNPVIY [RHO_Y301_K296E] . 1.99

Now try RNLDTYQKRLR [PLA2G2D_Y126] . 0.373

Now try CITIHYNYMCN [TP53_Y234_T230I] . 0.474

Now try LTMAPYSSVSL [FAM81A_Y24] . 0.498

Now try IFGASYVPFAA [RBM47_Y541_YF] . 0.589

Now try VKPENYRRLDI [VHL_Y175] . 0.615

Now try SIKDKYVMALF [KCNH2_Y611_T613M_YF] . 0.535

Now try NRKGKYFNVER [ANAPC4_Y469] . 0.473

Now try SVNCTYSPALN [TP53_Y126_T123N] . 0.484

Now try LVTAWYIGFLC [KCNQ2_Y237] . 0.872

Now try REETTYLPLTS [ICAM3_Y527_S525T] . 0.74

###

Target Entity: MERTK (UniProt Q12866)
Sequence (Q12866 whole entry, looked up): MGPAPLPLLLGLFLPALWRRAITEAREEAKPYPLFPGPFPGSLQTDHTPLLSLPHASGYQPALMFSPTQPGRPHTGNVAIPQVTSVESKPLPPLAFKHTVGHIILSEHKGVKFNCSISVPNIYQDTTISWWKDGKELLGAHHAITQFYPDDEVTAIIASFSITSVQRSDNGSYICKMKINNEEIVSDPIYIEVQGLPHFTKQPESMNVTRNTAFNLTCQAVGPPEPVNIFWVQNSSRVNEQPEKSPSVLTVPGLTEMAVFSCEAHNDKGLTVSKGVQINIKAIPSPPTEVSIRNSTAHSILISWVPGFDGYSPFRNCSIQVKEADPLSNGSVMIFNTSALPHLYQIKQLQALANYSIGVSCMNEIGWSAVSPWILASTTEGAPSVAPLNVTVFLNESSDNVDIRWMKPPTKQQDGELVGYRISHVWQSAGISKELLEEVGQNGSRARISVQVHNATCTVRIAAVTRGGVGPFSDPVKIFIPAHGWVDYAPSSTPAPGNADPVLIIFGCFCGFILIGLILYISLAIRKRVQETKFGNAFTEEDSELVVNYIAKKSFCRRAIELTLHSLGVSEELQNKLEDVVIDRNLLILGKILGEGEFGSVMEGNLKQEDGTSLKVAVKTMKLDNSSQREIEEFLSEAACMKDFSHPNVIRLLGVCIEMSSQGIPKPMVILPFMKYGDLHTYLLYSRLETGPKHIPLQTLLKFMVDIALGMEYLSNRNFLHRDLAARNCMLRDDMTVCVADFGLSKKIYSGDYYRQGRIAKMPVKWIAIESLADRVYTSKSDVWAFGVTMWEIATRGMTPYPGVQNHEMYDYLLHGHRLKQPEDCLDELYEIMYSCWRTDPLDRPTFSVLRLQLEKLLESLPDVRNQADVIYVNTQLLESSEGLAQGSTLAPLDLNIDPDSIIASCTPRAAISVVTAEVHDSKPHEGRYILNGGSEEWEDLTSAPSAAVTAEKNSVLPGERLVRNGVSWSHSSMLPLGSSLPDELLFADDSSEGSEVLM
Assay Explanation: phosphorylation enrichment, bacterial display (enrichment ratio); higher = better substrate or ligand; peptides without Tyr show the background
Measured Endpoint: phosphorylation enrichment
Reply with the value as a number alone.

- PLQSEYSSITT [ITGB4_Y1760]: 1.77
- FIATQYSLRPR [LBR_Y166_YF]: 0.506
- CNPRRYPVLMS [OR2T1_Y182_L180R]: 0.411
- FAADFYKLLGN [ROR2_Y646_YF]: 0.438

For the sequence shown here, MGRVNYGAFIN [GLB1_Y485_YF] , give the reported phosphorylation enrichment. 0.426

Now try LDLSYYPTSSS [EMD_Y182] . 0.955

Now try GAVDTYCRHNY [HLA-DRB1_Y107_A102G] . 0.443

Now try TVLGEYALPKG [CYP24A1_Y407] . 0.585

Now try DVQNAYDSNHC [ZFYVE16_Y36] . 0.574

Now try ADEDIYGVLPA [LYNtide_2014] . 2.76

Now try NMSRIYSTTKV [ACE_Y151_A154T] . 0.366

###

Target Entity: MERTK (UniProt Q12866)
Assay Explanation: phosphorylation enrichment, bacterial display (enrichment ratio); higher = better substrate or ligand; peptides without Tyr show the background
# phosphorylation enrichment >= 0.6 gives Criterion met, anything below gives Criterion not met

Sample answers from the record:
• EVEPTYVVLYD [ERCC4_Y577_R576T] = Criterion met
• FMMMRYSQNIR [SDAD1_Y656_V660I] = Criterion not met
• LIDGFYRLTED [JAK2_Y373_A377E_YF] = Criterion not met
• EREFKYDAHNF [OAT_Y50_G51D_YF] = Criterion not met
• GVTLLCFGRFN [ADGRD1_Y85_Y85C_YF] = Criterion not met
• TLSGIYQFSIA [FOXL2_Y81_I84S_YF] = Criterion met
• VDASFYGGRGV [ANTXR2_Y381_YF] = Criterion not met
• TNDMRYPMKSE [TGDS_Y302] = Criterion not met
• RRNNSYTCFTA [SLC20A2_Y386_YF] = Criterion met
• YKEQGYHRLPP [RIN1_Y681] = Criterion not met

hey, is phosphorylation enrichment for this one >= 0.6? TNITEYCRDLI [RECQL_Y492_K487T] Criterion not met

###

Target Entity: Jak2 (UniProt O60674)
Sequence (O60674 whole entry, looked up): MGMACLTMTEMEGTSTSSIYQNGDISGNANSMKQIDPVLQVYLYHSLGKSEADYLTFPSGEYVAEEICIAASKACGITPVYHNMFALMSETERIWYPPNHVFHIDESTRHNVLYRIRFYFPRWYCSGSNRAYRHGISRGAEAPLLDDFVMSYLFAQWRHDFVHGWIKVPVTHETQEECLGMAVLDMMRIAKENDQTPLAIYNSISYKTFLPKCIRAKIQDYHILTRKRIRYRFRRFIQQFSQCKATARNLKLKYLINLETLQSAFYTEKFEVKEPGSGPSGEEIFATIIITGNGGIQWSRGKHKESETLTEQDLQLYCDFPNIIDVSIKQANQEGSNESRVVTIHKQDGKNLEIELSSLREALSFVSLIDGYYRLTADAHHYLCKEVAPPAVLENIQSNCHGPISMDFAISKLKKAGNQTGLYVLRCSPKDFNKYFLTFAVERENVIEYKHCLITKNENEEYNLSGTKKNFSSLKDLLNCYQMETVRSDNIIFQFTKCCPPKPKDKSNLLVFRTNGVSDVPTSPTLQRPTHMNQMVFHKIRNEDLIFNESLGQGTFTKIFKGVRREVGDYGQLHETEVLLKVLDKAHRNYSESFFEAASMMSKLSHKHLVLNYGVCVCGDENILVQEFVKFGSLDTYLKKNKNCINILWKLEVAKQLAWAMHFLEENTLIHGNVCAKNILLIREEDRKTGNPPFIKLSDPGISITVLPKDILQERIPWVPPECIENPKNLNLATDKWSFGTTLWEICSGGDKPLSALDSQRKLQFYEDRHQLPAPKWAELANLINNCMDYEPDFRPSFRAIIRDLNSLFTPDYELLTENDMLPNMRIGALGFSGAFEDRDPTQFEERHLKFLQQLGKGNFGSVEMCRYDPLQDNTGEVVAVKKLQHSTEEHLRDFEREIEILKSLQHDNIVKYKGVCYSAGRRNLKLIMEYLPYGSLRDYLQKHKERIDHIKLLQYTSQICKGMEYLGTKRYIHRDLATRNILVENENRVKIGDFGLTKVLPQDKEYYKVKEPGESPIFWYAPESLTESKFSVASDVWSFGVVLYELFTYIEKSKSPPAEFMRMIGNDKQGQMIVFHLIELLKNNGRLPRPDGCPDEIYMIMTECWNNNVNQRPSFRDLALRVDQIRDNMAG
Assay Explanation: phosphorylation enrichment, bacterial display (enrichment ratio); higher = better substrate or ligand; peptides without Tyr show the background
# phosphorylation enrichment >= 0.9 gives Yes, anything below gives No

Sample answers from the record:
• TEQDPYNNIDR [MMUT_Y364_V368D] = No
• PNQRRYVYYYS [PTEN_Y174_S170N] = Yes
• HAVYVCDICHV [TWNK_Y508_Y508C] = Yes

hey, is phosphorylation enrichment for this one >= 0.9? LKLIQYHLTQQ [AKAP4_Y554] Yes

Now try HQNGMYRLHQD [SGSH_Y89_G90R] . Yes

Now try IFGASYVPFAA [RBM47_Y541_YF] . Yes

Now try ALAAPYVLFPG [CEFIP_Y1332_YF] . Yes

Now try PTQLPYDHKWE [KIT_Y578] . No

Now try NSRYTYKLEVK [USH2A_Y3747] . Yes

Now try SAEKAYHEQLS [TUBA1A_Y282] . No

Now try LNCDRYSAGLL [PDE6A_Y275_V277A] . No

Now try RSDSSYRMSAT [NHS_Y1532] . No

Now try KLASTYREAAT [DEAF1_Y483_H479L] . No

Now try TLPAFYMENFS [GLB1_Y552_G554E] . Yes

###

Target Entity: FGFR3 (UniProt P22607)
Sequence (P22607 whole entry, looked up): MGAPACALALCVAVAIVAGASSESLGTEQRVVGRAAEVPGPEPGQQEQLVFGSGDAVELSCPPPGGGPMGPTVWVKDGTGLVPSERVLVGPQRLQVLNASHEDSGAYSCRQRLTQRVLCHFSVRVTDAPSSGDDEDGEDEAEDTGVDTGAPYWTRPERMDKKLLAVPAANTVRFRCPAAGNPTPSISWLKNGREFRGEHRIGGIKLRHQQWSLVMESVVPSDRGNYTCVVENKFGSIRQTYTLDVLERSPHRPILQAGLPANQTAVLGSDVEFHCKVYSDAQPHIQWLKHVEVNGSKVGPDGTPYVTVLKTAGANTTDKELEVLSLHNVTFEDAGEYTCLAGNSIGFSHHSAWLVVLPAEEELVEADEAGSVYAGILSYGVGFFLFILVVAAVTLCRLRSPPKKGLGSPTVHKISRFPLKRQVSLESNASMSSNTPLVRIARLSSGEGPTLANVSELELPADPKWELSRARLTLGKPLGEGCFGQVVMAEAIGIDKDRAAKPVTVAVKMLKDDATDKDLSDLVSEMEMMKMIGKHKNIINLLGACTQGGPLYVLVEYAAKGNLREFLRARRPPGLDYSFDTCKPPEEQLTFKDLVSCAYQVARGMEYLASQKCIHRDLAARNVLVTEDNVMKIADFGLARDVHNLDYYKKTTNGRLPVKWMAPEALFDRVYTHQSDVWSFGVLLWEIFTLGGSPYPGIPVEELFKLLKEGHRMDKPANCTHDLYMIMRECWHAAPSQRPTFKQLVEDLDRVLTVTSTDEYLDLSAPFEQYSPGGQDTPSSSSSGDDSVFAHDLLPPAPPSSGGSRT
Assay Explanation: phosphorylation enrichment, bacterial display (enrichment ratio); higher = better substrate or ligand; peptides without Tyr show the background
Class boundaries, taken from values of phosphorylation enrichment, are as follows: low interval (below 0.5), middle interval (0.5 to below 0.6), high interval (0.6 or more)

Sample answers from the record:
- SSVKPYRVYCD [FGB_Y266]: middle interval
- EFSNQYKATIG [RAB7A_Y37_K32E]: low interval
- LRTAVYHEILI [CREBBP_Y1450]: high interval

Dear colleague, I would appreciate it if you could identify the bin for KGEDFYFVTCH [FHL1_Y149_C150Y_YF] and reply at your convenience. high interval

Now try VIGRMYDYHVL [RPF2_Y109] . high interval

Now try `WANPEYTGGFK` . high interval

###

Target Entity: Jak2 (UniProt O60674)
Assay Explanation: phosphorylation enrichment, bacterial display (enrichment ratio); higher = better substrate or ligand; peptides without Tyr show the background
# phosphorylation enrichment >= 0.8 gives Y, anything below gives N

Sample answers from the record:
* KDQGIYEDFVE [MYL6_Y86_T85I_YF] | Y
* LENSTYQFICV [CRB1_Y760_R764C_YF] | Y
* ACDALYPPGPP | N
* ELQDDYEDTME [SLC4A1_Y8_M11T] | Y
* QTLTDYDTRFY [CSNK2A3_Y131_I133T] | Y
* RNIQQCNSFVS [PRKAR1A_Y373_Y373C] | Y
* NKKFHYRELPV [ERN2_Y860_H858Y_YF] | N
* IPPRRYFRSGV [STAMBP_Y36] | N

Shift focus to the following entry.
hey, is phosphorylation enrichment for this one >= 0.8? HVKHNYECLVF [XRCC5_Y416_I412V_YF] Y

###

Entries annotated with measured SH2 binding enrichment
Target Entity: SHP2-C SH2;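 also: peptide library displayed on the E. coli surface as eCPX fusions, selected cells deep-sequenced, score is each peptide's frequency after selection divided by its frequency in the input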
Assay Explanation: SH2 binding enrichment of the phosphorylated peptide, bacterial display (enrichment ratio); higher = better substrate or ligand; peptides without Tyr show the background

Observe how each entry below is paired with its result.
• QEIATYPRLLE [KRT14_Y415_R416P] = 0.705
• VHSGTYQVTVC [MYBPC3_Y1043_R1048C] = 0.599
• TRSYKYLLLSM [NF1_Y491] = 2.46
• TSEASYFKSLN [NGEF_Y288_YF] = 0.589
• MASISYDYCRV [BST2_Y6_T4I] = 0.77
• QRRLVYFERGA [RYR1_Y245_G248R_YF] = 0.578
• TLMNAYSSCSH [KIF11_Y231_R234C] = 0.658
• RISPEYKQNEI [GJB1_Y243_L239I] = 1.15

For the sequence shown here, GCRSKSVGLWG [KCNQ1_Y184_Y184S] , give the reported SH2 binding enrichment. 0.899

Now try PAVGIYNGNIN [CDCP1_Y707_D709G] . 0.708

Now try LIFTNYEAGKD [GSTP1_Y112_YF] . 0.55
